TESTED_ON: UniProt:P24941
ASSAY_METHOD_TEXT: Inhibition of human recombinant full length C-terminal His6-tagged CDK2 expressed in baculovirus infected Sf21 insect cells using fluorescence substrate after 60 mins by caliper off-chip incubation mobility shift assay
MEASURED_ATTRIBUTE: IC50 (µM)
Quick note: give the figure in µM, leave out the unit.

Please review the following examples before continuing.
1) COc1cc(N2CCN(C)CC2)ccc1Nc1nccc(-c2c[nH]c3cnccc23)n1	1.82
2) CN1CCN(c2ccc(Nc3cc(-c4c[nH]c5ccccc45)ncn3)cc2)CC1	33.2
3) COc1cc(N2CCN(C)CC2)ccc1Nc1nccc(-c2cn(C)c3cnccc23)n1	4.47
4) COc1cc(N2CCN(C(C)=O)CC2)ccc1Nc1cc(-c2c[nH]c3cnccc23)ncn1	14.1
5) CN1CCN(c2ccc(Nc3cc(-c4c[nH]c5cnccc45)ncn3)cc2)CC1	0.577
6) COc1cc(N2CCN(C(C)=O)CC2)ccc1Nc1cc(-c2cn(C)c3cnccc23)ncn1	14.8
7) c1cc2c(-c3ccnc4[nH]ccc34)c[nH]c2cn1	0.314

Now let's try a different one.
Any idea what its IC50 is? The compound is CN1CCN(c2ccc(Nc3ncc(Cl)c(-c4c[nH]c5cnccc45)n3)cc2)CC1
0.02
